// provenance: ChEMBL document CHEMBL1201862

Test system: ACHN
Test: NCI tumour cell line growth inhibition, 48 h
The source made the active and inactive calls. Rule as the data show it: active = GI50 up to about 1.1 µM and inactive = higher.
The reply should name one outcome from active, inactive

Solved entries:
>>> class("COc1ccc(NC(=S)NNC(=O)c2nsc3ccccc23)cc1")
"inactive"
>>> class("CC(=O)NC(CS/N=N/c1[nH]cnc1C(N)=O)C(=O)O (centres undefined)")
"inactive"
>>> class("COc1cc2c(cc1OC)C(=O)/C(=C/c1ccccc1)CC2")
"inactive"
>>> class("C/C(=N\\Nc1nc2ccccc2s1)c1cc(C)ncn1")
"active"
>>> class("COC(=O)C1(C)CCc2c(OC)ccc(OC)c2C1=O (centres undefined)")
"inactive"
>>> class("S=c1sc2c(n1-c1ccccc1)N=CNC2S (centres undefined)")
"inactive"
>>> class("O=C(CC1(O)C(=O)Nc2ccccc21)c1ccco1 (centres undefined)")
"inactive"
>>> class("CN(C)CCOC1(Cc2ccc(Cl)cc2Cl)CCC(C(C)(C)C)CC1 (centres undefined)")
"inactive"
>>> class("Brc1ccc(/N=C/C=C(\\Nc2ccc(Br)cc2)C23CC4CC(CC(C4)C2)C3)cc1")
"inactive"
>>> class("COc1ccc(CNc2nc(NCc3ccc(OC)cc3)nc(NC(C)C)n2)cc1")
"inactive"

Let's switch to this molecule now.
Q) In this assay, the call recorded for N#Cc1c(-c2ccc([N+](=O)[O-])cc2)cc(-c2ccc(Nc3ccnc4cc(C(F)(F)F)ccc34)cc2)[nH]c1=O was what?
A) inactive

* * *

Exercise: for every item that follows, state its recorded GI50.
System: MDA-N
Experiment: NCI tumour cell line growth inhibition, 48 h
Active and inactive are the calls of the source. No stated cut-off is given here; in the data, active = GI50 up to about 1.1 µM and inactive = higher.

Some solved entries appear below for comparison.
>>> measured_result("CC(=O)NC(CCCCNC(=O)OC(C)(C)C)C(=O)O (stereo unspecified)")
"> 100 µM (inactive)"
>>> measured_result("COc1nc(C#CC2CCCCC2)nc(OC)n1")
"3.28 µM (inactive)"
>>> measured_result("O=c1oc2cccnc2n1CCN1CCN(c2ccc(Oc3ccccc3)cc2)CC1")
"79.6 µM (inactive)"
>>> measured_result("C/C(=N\\NC(=[Se])N(C)C)c1ccccn1")
"1.89 µM (inactive)"
>>> measured_result("CC(C)(C)[Si](C)(C)OCC1OC(n2ccc(=O)[nH]c2=O)C(O[Si](C)(C)C(C)(C)C)[C@]12O[C@@H]2CO (stereo partly specified)")
"20.9 µM (inactive)"

I would be grateful if you could provide GI50 for each of the following entries.
1. CS(=O)(=O)OCC1OC(n2ccc(NC(=O)c3ccccc3)nc2=O)CC1OS(C)(=O)=O (stereo unspecified)
2. CNc1cc([N+](=O)[O-])ccc1C(=O)N1CCC[C@H]1CO
3. COC(=O)[C@@]12CCCC(=O)[C@@H]1[C@H]1CCC[C@H]12
4. CC(C)(Oc1ccc(Cl)cc1)C(=O)N(C(=O)N1CCCCC1)c1ccccc1
5. CSC1=C(SC)C(=O)c2cn(C)c(=O)cc2C1=O
6. NCC(=O)C(O)C(O)C(O)CO (stereo unspecified)

A)
["> 100 µM (inactive)", "> 100 µM (inactive)", "> 100 µM (inactive)", "24.5 µM (inactive)", "1.64 µM (inactive)", "> 100 µM (inactive)"]

* * *

Test system: SNB-75
Assay: NCI tumour cell line growth inhibition, 48 h
The source made the active and inactive calls. Cut-off read from the data, not from the text of the source: active = GI50 up to about 1.1 µM and inactive = higher.
MEASURED ENDPOINT: GI50

Some solved entries appear below for comparison.
>>> measured_result("COC(=O)c1cc(OCc2cc(OCc3ccc(Br)cc3)cc(OCc3ccc(Br)cc3)c2)cc(OCc2cc(OCc3ccc(Br)cc3)cc(OCc3ccc(Br)cc3)c2)c1")
"> 100 µM (inactive)"
>>> measured_result("CCOC(=O)CN1CCS/C1=N/C#N")
"> 100 µM (inactive)"
>>> measured_result("CCCCc1cc2c(cc1O)CCC1C2CC[C@@]2(C)C1CC[C@@H]2O (stereo not given in full)")
"13 µM (inactive)"

I would be grateful if you could provide GI50 for each of the following entries.
1. CC1CCC(C(=O)O)(C(Br)C(=O)O)CC1 (stereo not given)
2. O=C1c2ccccc2-c2c1c1ccccc1c(=O)n2Cc1ccco1
3. COC(=O)[C@H]1[C@H](OC(=O)[C@@H](OC)c2ccccc2)ON2CC[C@@H](OC(=O)c3ccccc3)[C@H]12
4. CC(=O)NC(CCCN(Cc1ccccc1)C(=O)N(C)N=O)C(=O)NCc1ccccc1 (stereo not given)

A)
["> 100 µM (inactive)", "48.6 µM (inactive)", "29 µM (inactive)", "27.4 µM (inactive)"]

* * *

System: UACC-62
Assay: NCI tumour cell line growth inhibition, 48 h
Active and inactive are the calls of the source. No stated cut-off is given here; in the data, active = GI50 up to about 1.1 µM and inactive = higher.
The reply should name one outcome from true (1) for active, false (0) for inactive

>>> class("COc1ccc(/C=C2\\C[C@H]3[C@@H]4CC=C5C[C@@H](OC(C)=O)CC[C@]5(C)[C@H]4CC[C@]3(C)\\C2=N\\O)cc1OC")
"false (0)"
>>> class("COc1ccc2c(c1)c1c(n2CCN2CCCCC2)-c2cccc(OC)c2CC1")
"false (0)"
>>> class("CC(C)(O)CCc1ccc(O)c2c(=O)c3c(O)c4c(cc3oc12)O[C@H]1OC=C[C@@]41O")
"true (1)"

Q) In this assay, the call recorded for Cc1nc2c(=O)[nH]c(=O)nc-2n(CCO)c1C was what?
A) false (0)

Q) In this assay, the call recorded for NNC(=O)CCSc1ccccc1 was what?
A) false (0)

Q) In this assay, the call recorded for CC(C)N(C(=O)C12C3C4C5(C#N)C3C1(I)C5C42I)C(C)C (centres undefined) was what?
A) false (0)

Q) In this assay, the call recorded for c1ccc2/c3[nH]/c(c2c1)=N\c1ccc(cc1)-c1nc2ccc(cc2o1)/N=c1/[nH]/c(c2ccccc12)=N/c1ccc2nc(oc2c1)-c1ccc(cc1)\N=3 was what?
A) false (0)

Q) In this assay, the call recorded for CC(=O)Oc1ccc2[nH]c3c(C)c4cccc-4ccc3c2c1 was what?
A) false (0)

Q) In this assay, the call recorded for NC(=O)C1C(=O)Oc2cccnc21 (centres undefined) was what?
A) false (0)

* * *

System: OVCAR-3
Assay: NCI tumour cell line growth inhibition, 48 h
Calls of active or inactive are those of the source. No stated cut-off is given here; in the data, active = GI50 up to about 1.1 µM and inactive = higher.
The reply should name one outcome from 1.0 for active, 0.0 for inactive

Q) In this assay, the call recorded for COc1ccc(C(=O)O)c(Br)c1OCc1ccccc1 was what?
A) 0.0

Q) In this assay, the call recorded for CC(C)(/N=N/C(C)(C)C1=NCCN1)C1=NCCN1 was what?
A) 0.0

Q) In this assay, the call recorded for COC1CC(OS(=O)(=O)c2ccc(C)cc2)C(OS(=O)(=O)c2ccc(C)cc2)C(COS(=O)(=O)c2ccc(C)cc2)O1 (stereo unspecified) was what?
A) 0.0

Q) In this assay, the call recorded for CN1N=C(c2ccncc2)OC1c1ccc(Cl)c(Cl)c1 (stereo unspecified) was what?
A) 0.0

Q) In this assay, the call recorded for COC(=O)C1(C)CCc2c(OC)ccc(OC)c2C1=O (stereo unspecified) was what?
A) 0.0

Q) In this assay, the call recorded for Cc1nc2c(=O)[nH]c(=O)nc-2n(CCO)c1C was what?
A) 0.0

Q) In this assay, the call recorded for O=[N+]([O-])C(=C(Nc1ccccc1)Nc1ccccc1)/C(Cl)=C(\Cl)Br was what?
A) 0.0

* * *

System: A549
Test: NCI tumour cell line growth inhibition, 48 h
Calls of active or inactive are those of the source. Rule as the data show it: active = GI50 up to about 1.1 µM and inactive = higher.
The reply should name one outcome from active, inactive

Solved entries:
>>> class("O=c1[nH]nc(Cc2ccccc2)n1N=C1CCCCC1")
"inactive"
>>> class("COCOc1cc(OC)ccc1C/C=N/O")
"inactive"
>>> class("Nc1nc(Cl)c(Cl)c(NCC2(O)CCC2)n1")
"inactive"

Q) In this assay, the call recorded for c1ccc2c(CNCCCN3CCN(CCCNCc4cccc5ccccc45)CC3)cccc2c1 was what?
A) inactive

Q) In this assay, the call recorded for CN(C)/C=N/n1c2ccccc2c2ccccc21 was what?
A) inactive

* * *

Exercise: for every item that follows, state its recorded GI50.
Tested on: A549
Test: NCI tumour cell line growth inhibition, 48 h
Active and inactive are the calls of the source. No stated cut-off is given here; in the data, active = GI50 up to about 1.1 µM and inactive = higher.

Some solved entries appear below for comparison.
>>> measured_result("CCCCCCCCCCCC(=O)Oc1c(Cl)cc(Cl)c(OC(=O)C(=O)Oc2c(Cl)cc(Cl)c(OC(=O)CCCCCCCCCCC)c2Cl)c1Cl")
"> 100 µM (inactive)"
>>> measured_result("CN(C)/C=N/S(=O)(=O)c1nn2c(C=O)c(-c3ccc(Cl)cc3)nc2s1")
"8.26 µM (inactive)"
>>> measured_result("CNc1ccc(C(=O)CC(O)CCC(C)C2OC(=O)CC(O)CC(=O)CC(O)CC(O)CC(O)CC(O)CC3(O)CC(O)C(C(=O)NCCN(C)C)C(CC(OC4OC(C)C(O)C(NC(=O)CN5CCN(C)CC5)C4O)\\C=C/C=C\\C=C/C=C/C=C/C=C\\C=C/C2C)O3)cc1 (centres undefined)")
"2.88 µM (inactive)"

Continue with the compound presented below.
Q) Fill in the blank: the reported GI50 of O=c1cc(-c2ccc(O)cc2)n(C2CC2)c2ccccc12 is ____.
A) 4.52 µM (inactive)
